These entries and their values trace back to patent US20110065694A1.

Target: H3 receptor (Rattus norvegicus)
Construct: membranes to be tested were prepared from brain frontal cortex membranes by homogenization; from tissue; host or cells: frontal cortex of adult male Sprague-Dawley rats
Sequence (Q9QYN8 whole entry): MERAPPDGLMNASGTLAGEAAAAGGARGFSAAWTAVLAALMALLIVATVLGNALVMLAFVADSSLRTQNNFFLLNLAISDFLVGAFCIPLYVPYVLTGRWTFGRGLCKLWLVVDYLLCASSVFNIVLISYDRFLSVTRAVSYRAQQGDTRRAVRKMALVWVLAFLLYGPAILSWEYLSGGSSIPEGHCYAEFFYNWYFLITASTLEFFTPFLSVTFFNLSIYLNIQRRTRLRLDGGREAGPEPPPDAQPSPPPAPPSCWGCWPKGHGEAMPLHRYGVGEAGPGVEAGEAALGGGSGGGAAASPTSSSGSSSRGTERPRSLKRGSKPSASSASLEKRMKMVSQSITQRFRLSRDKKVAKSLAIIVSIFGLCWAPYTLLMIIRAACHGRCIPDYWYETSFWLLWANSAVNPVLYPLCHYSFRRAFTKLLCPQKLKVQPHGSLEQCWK
Test: Rat H3 ex vivo receptor occupancy assay
Conditions: dose giving 50% H3 receptor occupancy; ex vivo binding of [3H] R-α-methylhistamine in rat frontal cortical membranes
Readout: ED50

Known ED50 results, listed for orientation:
// query ED50 value for entry c1ccc2c(c1)CCN(Cc1ccc3c(c1)nc1n3CCCN(C3CCC3)CC1)C2
≤ 1 mg/kg

Requested field: ED50. Item: c1cn2cc(-c3ccc4c(c3)nc3n4CCCN(C4CCC4)CC3)ccc2n1
≤ 1 mg/kg

What value of ED50 has been reported for the following compound? c1ccc2c(c1)CCN(Cc1ccc3c(c1)nc1n3CCN3CCCC[C@@H]3C1)C2 (single isomer, unassigned)
≥ 1 mg/kg

More entries:
For c1cn2cc(-c3ccc4c(c3)nc3n4CCN4CCCC[C@@H]4C3)ccc2n1 (single isomer, unassigned) , what is its reported ED50?
≤ 1 mg/kg

// ED50 lookup, key: c1cc2c(cc1CN1CCOCC1)nc1n2CCCN(C2CCC2)CC1
≥ 1 mg/kg

---

Target: human histamine H3 receptor (Homo sapiens)
Assay: H3 GTPγS assay (SPA method), histamine H3 in vitro assay
Format: biochemical
Details: membranes of cells expressing human H3; GTPγ[35S] SPA; antagonist testing with reference agonist at EC80 (30 nM); in one embodiment HCl salts tested; read-out: Potency (functional potency as indicated by IC50)
pIC50: −log10 of the molar value.
Readout: pIC50

Record excerpt, results attached:
Look up pIC50: N#Cc1ccc(-c2ccc3c(c2)nc2n3CC3CCC(C2)N3C2CCC2)cc1 (stereo not shown) [Compound 20]
> 8.00

State the recorded pIC50 for this entry: c1cn2cc(-c3ccc4c(c3)nc3n4CCN4CCCC[C@@H]4C3)ccc2n1 (single isomer, unassigned) [Compound 48]
> 8.00

Dear colleague, I am looking for the recorded pIC50 of the following molecule: N#Cc1ccc(-c2ccc3c(c2)nc2n3CC3CCCN3CC2)cc1 (stereo not shown) [Compound 13]
> 6.00

Others:
For the molecule N#Cc1ccc(-c2ccc3c(c2)nc2n3CCN3CCCC3C2)cc1 (stereo not shown) [Compound 73] , what pIC50 is on record?
> 8.00

---

Molecular target: UniProt Q9Y5N1
Assay: H3 GTPγS assay (SPA method), histamine H3 in vitro assay
Type: biochemical
Conditions: membranes of cells expressing human H3; GTPγ[35S] SPA; antagonist testing with reference agonist at EC80 (30 nM); in one embodiment HCl salts tested; read-out: Potency (functional potency as indicated by IC50)
Reported IC50 values for the following molecules.

// lookup IC50 for c1cn2cc(-c3ccc4c(c3)nc3n4CCN4CCCCC4C3)ccc2n1 (centres unmarked)
< 10 nM

---

Molecular target: human histamine H3 receptor (Homo sapiens, UniProt Q9Y5N1)
Sequence (Q9Y5N1 whole entry): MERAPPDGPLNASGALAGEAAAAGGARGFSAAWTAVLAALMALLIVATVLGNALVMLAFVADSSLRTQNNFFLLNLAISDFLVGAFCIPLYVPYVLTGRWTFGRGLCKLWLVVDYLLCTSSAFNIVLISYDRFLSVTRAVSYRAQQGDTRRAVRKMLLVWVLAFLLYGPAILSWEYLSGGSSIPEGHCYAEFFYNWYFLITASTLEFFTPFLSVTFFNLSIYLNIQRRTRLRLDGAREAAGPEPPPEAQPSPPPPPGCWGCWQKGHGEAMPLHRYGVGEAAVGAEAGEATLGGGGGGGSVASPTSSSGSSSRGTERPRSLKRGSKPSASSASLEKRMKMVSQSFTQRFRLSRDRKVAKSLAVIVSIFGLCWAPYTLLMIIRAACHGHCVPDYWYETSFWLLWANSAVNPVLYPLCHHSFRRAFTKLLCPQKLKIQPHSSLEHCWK
Assay: H3 GTPγS assay (SPA method), histamine H3 in vitro assay
Type: biochemical
Details: membranes of cells expressing human H3; GTPγ[35S] SPA; antagonist testing with reference agonist at EC80 (30 nM); in one embodiment HCl salts tested; read-out: Potency (functional potency as indicated by IC50)
Readout: IC50

Param readout = IC50; param system = human histamine H3 receptor (Homo sapiens, UniProt Q9Y5N1); param query = c1cc2c(cc1CN1CCOCC1)nc1n2CCN2CCCCC2C1 (single isomer, unassigned) [Compound 50] ; response: value
< 10 nM

Continuing:
Request: IC50, test system human histamine H3 receptor (Homo sapiens, UniProt Q9Y5N1), entry CC1Cn2c(nc3cc(-c4ccc(C#N)cc4)ccc32)CCN1C1CCC1 (stereo not shown)
< 100 nM

Tell me reported IC50 for N#Cc1ccc(-c2ccc3c(c2)nc2n3CC3CCC(C2)N3C2CCC2)cc1 (single isomer, unassigned) [Compound 44] , tested with human histamine H3 receptor (Homo sapiens, UniProt Q9Y5N1).
< 10 nM

Missing value: IC50, human histamine H3 receptor (Homo sapiens, UniProt Q9Y5N1), entry c1cn2cc(-c3ccc4c(c3)nc3n4CC4CCC(C3)N4C3CCC3)ccc2n1 (stereo not shown) . Fill in?
< 10 nM

Form field: IC50 recorded for c1cc2c(cc1CN1CCOCC1)nc1n2CCN2CCCC2C1 (stereo not shown) with human histamine H3 receptor (Homo sapiens, UniProt Q9Y5N1) (enter value)
< 10 nM

Provide the documented IC50 with human histamine H3 receptor (Homo sapiens, UniProt Q9Y5N1) as the system for N#Cc1ccc(-c2ccc3c(c2)nc2n3CCN(C3CCC3)C2)cc1
< 1000 nM

# get_value(readout= IC50, system= human histamine H3 receptor (Homo sapiens, UniProt Q9Y5N1)) for Clc1ccc2c(c1)nc1n2C2CCC1CN(C1CCC1)C2 (stereo not shown)
< 1000 nM

Find the measured IC50: item c1cc2c(cc1CN1CCOCC1)nc1n2CCCN(C2CCC2)CC1 , target or system human histamine H3 receptor (Homo sapiens, UniProt Q9Y5N1).
< 10 nM

Write down the reported IC50 of N#Cc1ccc(-c2ccc3c(c2)nc2n3CCCN3CCCC3C2)cc1 (stereo not shown) , test system: human histamine H3 receptor (Homo sapiens, UniProt Q9Y5N1).
< 10 nM

Query the reported IC50 for human histamine H3 receptor (Homo sapiens, UniProt Q9Y5N1); item: N#Cc1ccc(-c2ccc3c(c2)nc2n3C3CC(C2)N(C2CCC2)C3)cc1 (stereo not shown)
< 1000 nM

Give IC50 (human histamine H3 receptor (Homo sapiens, UniProt Q9Y5N1)) of the following compound: Clc1ccc2c(c1)nc1n2CCCN(C2CCC2)CC1
< 100 nM

What is its IC50 for human histamine H3 receptor (Homo sapiens, UniProt Q9Y5N1)? Entry: c1cn2cc(-c3ccc4c(c3)nc3n4CC4CC3CN4C3CCC3)ccc2n1 (stereo not shown)
> 1000 nM

For human histamine H3 receptor (Homo sapiens, UniProt Q9Y5N1), provide IC50 of CC1Cc2nc3cc(-c4ccc(C#N)cc4)ccc3n2CCN1C1CCC1 (stereo not shown) please.
< 10 nM
